Tested on: Staphylococcus aureus
Assay: Antibacterial activity against Methicillin-resistant Staphylococcus aureus ATCC 43300 assessed as bacterial growth inhibition incubated for 20 to 24 hrs by microbroth serial dilution assay
Assay type: functional
Conditions: time 20-24 hrs
measurement-kind: MIC

compound: C=C[C@]1(C)C[C@@H](OC(=O)CSc2nc(NC(=O)CN3CCCCC3)nc3[nH]cnc23)[C@@]2(C)C3C(=O)CC[C@@]3(CC[C@H]2C)[C@@H](C)[C@@H]1O (stereo partly specified)
assay-result: 0.125 µg/mL
--
compound: C=C[C@]1(C)C[C@@H](OC(=O)CSc2nc(N)nc3c2ncn3C(=O)Nc2ccccc2)[C@@]2(C)C3C(=O)CC[C@@]3(CC[C@H]2C)[C@@H](C)[C@@H]1O (stereo partly specified)
assay-result: 0.0625 µg/mL
--
compound: C=C[C@]1(C)C[C@@H](OC(=O)CSc2nc(N)nc3c2ncn3C(=O)OC)[C@@]2(C)C3C(=O)CC[C@@]3(CC[C@H]2C)[C@@H](C)[C@@H]1O (stereo partly specified)
assay-result: 0.125 µg/mL
--
compound: C=C[C@]1(C)C[C@@H](OC(=O)CSc2nc(N)nc3c2ncn3C(=O)NCc2ccccc2OC)[C@@]2(C)C3C(=O)CC[C@@]3(CC[C@H]2C)[C@@H](C)[C@@H]1O (stereo partly specified)
assay-result: 0.0625 µg/mL
--
compound: C=C[C@]1(C)C[C@@H](OC(=O)CSc2nc(N)nc3[nH]cnc23)[C@@]2(C)C3C(=O)CC[C@@]3(CC[C@H]2C)[C@@H](C)[C@@H]1O (stereo partly specified)
assay-result: 0.125 µg/mL

Next, consider the following compound.
For the compound C=C[C@]1(C)C[C@@H](OC(=O)CSc2nc(N)nc3c2ncn3C(=O)c2ccc(OC)cc2)[C@@]2(C)C3C(=O)CC[C@@]3(CC[C@H]2C)[C@@H](C)[C@@H]1O (stereo partly specified) , what MIC is on record? 0.125 µg/mL

----------
Consider the following compounds and their measured MIC readings.
Test system: Staphylococcus aureus
Experiment: Antibacterial activity against Methicillin-resistant Staphylococcus aureus ATCC 43300 assessed as bacterial growth inhibition incubated for 20 to 24 hrs by microbroth serial dilution assay
Type: functional
Settings: time 20-24 hrs
Reply with just the number (in µg/mL).

Look over these answered cases.
compound: C=C[C@]1(C)C[C@@H](OC(=O)CSc2nc(N)nc3c2ncn3C(=O)NCc2ccccc2)[C@@]2(C)C3C(=O)CC[C@@]3(CC[C@H]2C)[C@@H](C)[C@@H]1O (stereo partly drawn)
MIC / µg/mL: 0.0625

compound: C=C[C@]1(C)C[C@@H](OC(=O)CSc2nc(N)nc3c2ncn3C(=O)Nc2ccccc2OC)[C@@]2(C)C3C(=O)CC[C@@]3(CC[C@H]2C)[C@@H](C)[C@@H]1O (stereo partly drawn)
MIC / µg/mL: 0.25

Next, consider the following compound.
For the compound C=C[C@]1(C)C[C@@H](OC(=O)CSc2nc(NC(=O)CN3CCCC3)nc3[nH]cnc23)[C@@]2(C)C3C(=O)CC[C@@]3(CC[C@H]2C)[C@@H](C)[C@@H]1O (stereo partly drawn) , what MIC is on record? 1

----------
Consider the following compounds and their measured MIC readings.
Test system: Staphylococcus aureus
Test: Antibacterial activity against Methicillin-resistant Staphylococcus aureus ATCC 43300 assessed as bacterial growth inhibition incubated for 20 to 24 hrs by microbroth serial dilution assay
Type: functional
Details: time 20-24 hrs
Reply with just the number (in µg/mL).

Look over these answered cases.
compound: C=C[C@]1(C)C[C@@H](OC(=O)CSc2nc(N)nc3c2ncn3C(=O)c2ccc([N+](=O)[O-])cc2)[C@@]2(C)C3C(=O)CC[C@@]3(CC[C@H]2C)[C@@H](C)[C@@H]1O (stereo not given in full)
assay-result: 0.0625

compound: C=C[C@]1(C)C[C@@H](OC(=O)CSc2nc(N)nc3c2ncn3C(=O)NCc2cccc([N+](=O)[O-])c2)[C@@]2(C)C3C(=O)CC[C@@]3(CC[C@H]2C)[C@@H](C)[C@@H]1O (stereo not given in full)
assay-result: 0.0625

compound: C=C[C@]1(C)C[C@@H](OC(=O)CSc2nc(N)nc3c2ncn3C(=O)Nc2cccc(NC(=O)OC(C)(C)C)c2)[C@@]2(C)C3C(=O)CC[C@@]3(CC[C@H]2C)[C@@H](C)[C@@H]1O (stereo not given in full)
assay-result: 0.25

compound: C=C[C@]1(C)C[C@@H](OC(=O)CSc2nc(N)nc3c2ncn3C(=O)Nc2cccc(C(F)(F)F)c2)[C@@]2(C)C3C(=O)CC[C@@]3(CC[C@H]2C)[C@@H](C)[C@@H]1O (stereo not given in full)
assay-result: 0.25

Next, consider the following compound.
Lab note: need MIC for C=C[C@]1(C)C[C@@H](OC(=O)CSc2nc(N)nc3c2ncn3C(=O)CCc2ccccc2)[C@@]2(C)C3C(=O)CC[C@@]3(CC[C@H]2C)[C@@H](C)[C@@H]1O (stereo not given in full) on Staphylococcus aureus, anyone have it? 0.125

----------
Consider the following compounds and their measured MIC readings.
Tested on: Staphylococcus epidermidis
Assay: Antibacterial activity against Methicillin-resistant Staphylococcus epidermidis ATCC 51625 assessed as bacterial growth inhibition incubated for 20 to 24 hrs by microbroth serial dilution assay
Type: functional
Details: time 20-24 hrs
Reply with just the number (in µg/mL).

compound: C=C[C@]1(C)C[C@@H](OC(=O)CSc2nc(N)nc3[nH]cnc23)[C@@]2(C)C3C(=O)CC[C@@]3(CC[C@H]2C)[C@@H](C)[C@@H]1O (some centres not stated)
MIC, µg/mL: 0.125
//
compound: C=C[C@]1(C)C[C@@H](OC(=O)CSc2nc(N)nc3c2ncn3C(=O)NCc2ccc(C)cc2)[C@@]2(C)C3C(=O)CC[C@@]3(CC[C@H]2C)[C@@H](C)[C@@H]1O (some centres not stated)
MIC, µg/mL: 0.0625
//
compound: C=C[C@]1(C)C[C@@H](OC(=O)CSc2nc(N)nc3c2ncn3C(=O)NCc2ccccc2OC)[C@@]2(C)C3C(=O)CC[C@@]3(CC[C@H]2C)[C@@H](C)[C@@H]1O (some centres not stated)
MIC, µg/mL: 0.0625
//
compound: C=C[C@]1(C)C[C@@H](OC(=O)CSc2nc(N)nc3c2ncn3C(=O)NCc2ccccc2)[C@@]2(C)C3C(=O)CC[C@@]3(CC[C@H]2C)[C@@H](C)[C@@H]1O (some centres not stated)
MIC, µg/mL: 0.0625

Next, consider the following compound.
For the compound C=C[C@]1(C)C[C@@H](OC(=O)CSc2nc(N)nc3c2ncn3C(=O)Nc2ccc(F)cc2)[C@@]2(C)C3C(=O)CC[C@@]3(CC[C@H]2C)[C@@H](C)[C@@H]1O (some centres not stated) , what MIC is on record? 0.125

----------
System: Staphylococcus aureus
Assay: Antibacterial activity against Methicillin-sensitive Staphylococcus aureus ATCC 29213 assessed as bacterial growth inhibition incubated for 20 to 24 hrs by microbroth serial dilution assay
Consider the following compounds and their measured log10 MIC readings.
Hi team, quick reminder: these entries are log10 of MIC (µg/mL).

compound: C=C[C@]1(C)C[C@@H](OC(=O)CSc2nc(N)nc3c2ncn3C(=O)Nc2ccccc2OC)[C@@]2(C)C3C(=O)CC[C@@]3(CC[C@H]2C)[C@@H](C)[C@@H]1O (stereo partly drawn)
log10 MIC: -0.90
//
compound: C=C[C@]1(C)C[C@@H](OC(=O)CSc2nc(N)nc3[nH]cnc23)[C@@]2(C)C3C(=O)CC[C@@]3(CC[C@H]2C)[C@@H](C)[C@@H]1O (stereo partly drawn)
log10 MIC: -0.90
//
compound: C=C[C@]1(C)C[C@@H](OC(=O)CSc2nc(N)nc3c2ncn3C(=O)Nc2cccc(F)c2)[C@@]2(C)C3C(=O)CC[C@@]3(CC[C@H]2C)[C@@H](C)[C@@H]1O (stereo partly drawn)
log10 MIC: -1.20
//
compound: C=C[C@]1(C)C[C@@H](OC(=O)CSc2nc(N)nc3c2ncn3C(=O)OC)[C@@]2(C)C3C(=O)CC[C@@]3(CC[C@H]2C)[C@@H](C)[C@@H]1O (stereo partly drawn)
log10 MIC: -0.30
//
compound: C=C[C@]1(C)C[C@@H](OC(=O)CSc2nc(N)nc3c2ncn3C(=O)NCc2cccc([N+](=O)[O-])c2)[C@@]2(C)C3C(=O)CC[C@@]3(CC[C@H]2C)[C@@H](C)[C@@H]1O (stereo partly drawn)
log10 MIC: -1.20

For the compound C=C[C@]1(C)C[C@@H](OC(=O)CSc2nc(N)nc3c2ncn3C(=O)Nc2cccc(NC(=O)OC(C)(C)C)c2)[C@@]2(C)C3C(=O)CC[C@@]3(CC[C@H]2C)[C@@H](C)[C@@H]1O (stereo partly drawn) , what log10 MIC is on record? -0.60

// next record C=C[C@]1(C)C[C@@H](OC(=O)CSc2nc(NC(=O)CN3CCCCC3)nc3[nH]cnc23)[C@@]2(C)C3C(=O)CC[C@@]3(CC[C@H]2C)[C@@H](C)[C@@H]1O (stereo partly drawn) -0.60

// next record C=C[C@]1(C)C[C@@H](OC(=O)CSc2nc(N)nc3c2ncn3C(=O)CCc2ccccc2)[C@@]2(C)C3C(=O)CC[C@@]3(CC[C@H]2C)[C@@H](C)[C@@H]1O (stereo partly drawn) -0.90

// next record C=C[C@]1(C)C[C@@H](OC(=O)CSc2nc(N)nc3c2ncn3C(=O)NCc2ccc([N+](=O)[O-])cc2)[C@@]2(C)C3C(=O)CC[C@@]3(CC[C@H]2C)[C@@H](C)[C@@H]1O (stereo partly drawn) -1.20

// next record C=C[C@]1(C)C[C@@H](OC(=O)CSc2nc(N)nc3c2ncn3C(=O)Nc2ccccc2)[C@@]2(C)C3C(=O)CC[C@@]3(CC[C@H]2C)[C@@H](C)[C@@H]1O (stereo partly drawn) -0.90

// next record C=C[C@]1(C)C[C@@H](OC(=O)CSc2nc(N)nc3c2ncn3C(=O)NCc2ccc(C)cc2)[C@@]2(C)C3C(=O)CC[C@@]3(CC[C@H]2C)[C@@H](C)[C@@H]1O (stereo partly drawn) -0.90
